# ASSAY: FRG1 expression reporter modulators in myotubes – cell-based, C2C12 myotubes, firefly/Renilla luciferase, luminescence, FRG1 inhibition for FSHD, primary screen (AID 1084)
# PROTOCOL CONDITIONS: FRG1 promoter luciferase, higher = more signal, called active from +8 up or from −8 down
We begin with a simple list: items and their reported z-score.

COMPOUND	z-score
COC(=O)[C@@]1(Cc2ccc(F)cc2)[C@H]2c3cc(C(=O)N(C)C)n(Cc4ccccn4)c3C[C@H]2CN1C(=O)c1ccccc1	3.37
CC(C)(C)OC(=O)CC[C@]1(C(=O)NCC(O)CO)N=C(c2ccc(OCCCO)cc2)O[C@H]1c1ccccc1CN=[N+]=[N-] (some centres undefined)	2.4
CCCC[C@H]1OB(O)C[C@H]2C1=C(COc1ccccc1)C[C@H]1C(=O)N(Cc3ccccc3)C(=O)[C@H]12	0.132
Cc1ccc(S[C@]2(C(=O)NCCCN(C)C)CC(=O)N(C(C)C)[C@@H]2c2ccc(CO)cc2I)cc1	-0.312
